Each entry below carries its reported ED50 (nM) ST486 (cell killing).
# TEST SYSTEM: T1, DR4 (TRAIL-R1) on cancer cells (human, UniProt O00220 24-468)
# T1 sequence: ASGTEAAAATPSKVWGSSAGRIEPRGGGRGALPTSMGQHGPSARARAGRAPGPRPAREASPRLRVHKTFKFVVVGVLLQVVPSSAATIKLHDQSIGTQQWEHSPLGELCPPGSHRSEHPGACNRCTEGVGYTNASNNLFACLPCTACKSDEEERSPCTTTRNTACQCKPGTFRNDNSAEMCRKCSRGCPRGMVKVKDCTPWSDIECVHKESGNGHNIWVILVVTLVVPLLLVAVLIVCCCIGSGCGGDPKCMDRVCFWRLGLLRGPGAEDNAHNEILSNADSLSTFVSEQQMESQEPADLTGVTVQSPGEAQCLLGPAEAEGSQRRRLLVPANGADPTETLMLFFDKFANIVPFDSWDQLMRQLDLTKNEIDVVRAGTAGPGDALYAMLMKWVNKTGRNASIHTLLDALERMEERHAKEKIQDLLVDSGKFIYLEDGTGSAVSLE
# TEST NAME: cell-based or functional assay
Respond with the bare value in nM.

Example cases with answers are listed next.
BINDER	ED50 (nM) ST486 (cell killing)
119p94P1C1 (designed binder, ATRIMER from pANA19) EPPTQKPKKIVNAKKDVVNTKMFEELKSRLDTLAQEVALLKEQQALQTVCLKGTKVHMKCFLAFTQTKTFHEASEDCISRGGTLSTPQTGSENDALYEYLRQSVGNEAEIWLGLNGWLEGVGWVDMTGARIAYKNWAISDERQPDGGWPFSNENCAVLSGAANGKWFDKRCRDQLPYICQFGIV	251
119p94P1B4 (designed binder, ATRIMER from pANA19) EPPTQKPKKIVNAKKDVVNTKMFEELKSRLDTLAQEVALLKEQQALQTVCLKGTKVHMKCFLAFTQTKTFHEASEDCISRGGTLSTPQTGSENDALYEYLRQSVGNEAEIWLGLNGWLEGVGWVDMTGARIAYKNWAEVPFFQPDGGWPFSNENCAVLSGAANGKWFDKRCRDQLPYICQFGIV	127
119p94P1F4 (designed binder, ATRIMER from pANA19) EPPTQKPKKIVNAKKDVVNTKMFEELKSRLDTLAQEVALLKEQQALQTVCLKGTKVHMKCFLAFTQTKTFHEASEDCISRGGTLSTPQTGSENDALYEYLRQSVGNEAEIWLGLNGWLEGVGWVDMTGARIAYKNWAAVTMEQPDGGWPFSNENCAVLSGAANGKWFDKRCRDQLPYICQFGIV	308
119p83P1H4 (designed binder, ATRIMER from pANA19) EPPTQKPKKIVNAKKDVVNTKMFEELKSRLDTLAQEVALLKEQQALQTVCLKGTKVHMKCFLAFTQTKTFHEASEDCISRGGTLSTPQTGSENDALYEYLRQSVGNEAEIWLGLNGWLEGVGWVDMTGARIAYKNWSKVRLEQPDGGWPFSNENCAVLSGAANGKWFDKRCRDQLPYICQFGIV	0.13
119p94P1G7 (designed binder, ATRIMER from pANA19) EPPTQKPKKIVNAKKDVVNTKMFEELKSRLDTLAQEVALLKEQQALQTVCLKGTKVHMKCFLAFTQTKTFHEASEDCISRGGTLSTPQTGSENDALYEYLRQSVGNEAEIWLGLNGWLEGVGWVDMTGARIAYKNWGWSARVQPDGGWPFSNENCAVLSGAANGKWFDKRCRDQLPYICQFGIV	25.5
119p83P1H1 (designed binder, ATRIMER from pANA19) EPPTQKPKKIVNAKKDVVNTKMFEELKSRLDTLAQEVALLKEQQALQTVCLKGTKVHMKCFLAFTQTKTFHEASEDCISRGGTLSTPQTGSENDALYEYLRQSVGNEAEIWLGLNGWLEGVGWVDMTGARIAYKNWTQRHSGQPDGGWPFSNENCAVLSGAANGKWFDKRCRDQLPYICQFGIV	13
29p61P1E11 (designed binder, ATRIMER; also called 029-61.1E11) EPPTQKPKKIVNAKKDVVNTKMFEELKSRLDTLAQEVALLKEQQALQTVCLKGTKVHMKCFLAFTQTKTFHEASEDCISRGGTLSTPQTGSENDALYEYLRQSVGNEAEIWLGLNGWLEGVGWVDMTGARIAYKNWETEITAQPDGGWPFSNENCAVLSGAANGKWFDKRCRDQLPYICQFGIV	217
119p94P1D8 (designed binder, ATRIMER from pANA19) EPPTQKPKKIVNAKKDVVNTKMFEELKSRLDTLAQEVALLKEQQALQTVCLKGTKVHMKCFLAFTQTKTFHEASEDCISRGGTLSTPQTGSENDALYEYLRQSVGNEAEIWLGLNGWLEGVGWVDMTGARIAYKNWGWMDSKQPDGGWPFSNENCAVLSGAANGKWFDKRCRDQLPYICQFGIV	30.5

Would you kindly look at the next entry?
For reference, reported ED50 (nM) ST486 (cell killing) for 119p94P1B5 (designed binder, ATRIMER from pANA19) EPPTQKPKKIVNAKKDVVNTKMFEELKSRLDTLAQEVALLKEQQALQTVCLKGTKVHMKCFLAFTQTKTFHEASEDCISRGGTLSTPQTGSENDALYEYLRQSVGNEAEIWLGLNGWLEGVGWVDMTGARIAYKNWARHINEQPDGGWPFSNENCAVLSGAANGKWFDKRCRDQLPYICQFGIV stands at 6.6
